# assay text: Solubility in PEG400 (naked-eye inspection)
# Format: physicochemical
# setup conditions: polyethylene glycol 400 (PEG400), organic solvent or mixture, thermodynamic from solid; 0.5 g in 5 mL of PEG400, stirred, naked eye; read-out: Solubility in PEG400, Evaluation results
solubility values by entry

Answered examples (3):
[[record]]
compound = "CC(O)CO (stereo not shown) [Propylene glycol]"
result_value = "> 100 mg/mL"

[[record]]
compound = "OCC(O)CO [Glycerol]"
result_value = "> 100 mg/mL"

[[record]]
compound = "CC(=O)OCC(COC(C)=O)OC(C)=O [Triacetin]"
result_value = "> 100 mg/mL"


What value of solubility has been reported for the following compound? OC[C@@H](O)[C@@H](O)[C@H](O)[C@@H](O)CO [Sorbitol]
< 100 mg/mL

----------
# assay text: Solubility in 10 wt. % aqueous PVA solution
# Format: physicochemical
# setup conditions: aqueous with cosolvent or surfactant or cyclodextrin, thermodynamic from solid; 0.5 g in 10 wt. % aqueous PVA (JP-05) solution; read-out: Solubility in the Aqueous PVA Solution, Evaluation result
value type: solubility

What value of solubility has been reported for the following compound? OC[C@@H](O)[C@@H](O)[C@H](O)[C@@H](O)CO
> 100 mg/mL
